These entries and their values trace back to ChEMBL document CHEMBL5532692.

TARGET: Internal ribosome entry site (IRES)
ASSAY NAME: Binding affinity to HCV IRES subdomain IIa RNA assessed as dissociation constant by MST assay
EXPERIMENTAL ENDPOINT: Kd

For each entry beneath this line, provide reported Kd.
1. NC1=NC(c2cn[nH]c2-c2cccc(O)c2)n2c(nc3ccccc32)N1 (configuration not stated)
2. CNC(=N)Nc1nc(C)c2ccc(OC)cc2n1
3. Nc1cc(-c2ccc3[nH]ncc3c2)c2cc[nH]c2n1
4. COc1ccc2c(C)nc(NC(=N)N)nc2c1
5. CCOc1ccc2c(C)nc(NC(=N)N)nc2c1
6. N=C(N)NC(=O)c1nc(Cl)c(N)nc1N [AMILORIDE]
7. CC(C)NCC(O)COc1ccc2[nH]cc(CCN)c2c1 (configuration not stated)

Output line:
≥ 100 µM
88 µM
≥ 50 µM
134 µM
189 µM
≥ 100 µM
134 µM
